Dear all, this message contains IC50 results, target or system Proto-oncogene tyrosine-protein kinase Src (Homo sapiens, UniProt P12931).
Number in µM, nothing else.

IN: Specify measured IC50 for CC(=O)N[C@@H](Cc1ccc(C(P(=O)(O)O)P(=O)(O)O)cc1)C(=O)N[C@@H](C)c1ccc(OCC2CCCCC2)c(C(N)=O)c1 .
OUT: 0.35

IN: Specify measured IC50 for CC(=O)N[C@@H](Cc1ccc(CP(=O)(O)O)cc1)C(=O)N[C@@H](C)c1ccc(OCC2CCCCC2)c(C(N)=O)c1 .
OUT: 7.9
